# test: folding stability dG unfold (combined trypsin and chymotrypsin); higher = more stable
Attribute: folding stability dG unfold
metric: folding stability dG unfold (kcal/mol)

• SAGGSAGGSAGSSLPVLETREEGDLVYLLFPETNLLLVVRRGPGEVEVPSAVRVPPDVPLSAGGSAGGSAGG [r17_30_JUSTAS] = 0.958
• SAGGKTIPIWFRVPPGMTPEEAADELADEIANELQQQNGKEIEIKIDDVEPNPNGWNIVRIKIEVDPSAGGS [r8_156_TrROS] = 0.26

---

# test: folding stability dG unfold from chymotrypsin proteolysis; higher = more stable
metric: folding stability dG unfold (kcal/mol)

• SAGGDVVRVRVRLRRFEIVGDRPVYRPVDIDILAEADGDPEAARRRAEREARRLAEEYGAEIEDIELFPSAG [r5_497_TrMRF] = 2.57
• SAGGSMIEVERDPNDPNRYRARLPVIEENPPEPKLVYVDVYVDPENGLVYARAVTEDGGEAEFRFESAGGSA [r2_428_TrMRF] = 1.03
• SAGGSAGGSKEPIRVDEFEWRKNKDGMDMVQVTFPNNGKDIHLPPEHLDNLEPGDEIPLDDLISAGGSAGGS [r20_3_TrROS] = 0.192
• SAGGSAGGSAGEFEIIIPPGVAEERPELLEEIRDRFKPLGLEVEVEYIPGEGYVRVKVKGSAGGSAGGSAGG [r11_357_TrMRF] = 1.64
• SAGMITVPLPDGSVLELTVEKETVTTEVDPSTGKKRLVTETLMTNTGDLAVNGKVSPTTATLTTVVLESAGG [r19_246_JUSTAS] = 0.373
• SAGGMELTIPLPNGKLLKIKVEEVKAEPVLVEFELRDANGKLIDTIPAPSGFKISIRFSVEIYDPNEYSAGG [r13_848_TrMRF] = 3.91
• SAGGSAMVLVRIKLKHPEREEVIEVPAGELLEILEHPELNEHWEIVEIEAREVPPEFVEPEELEEESAGGSA [r15_460_TrMRF] = 0.896
• SAGGSAGGSALEVPSNYLVEVRFPNETRLIPVEDLDAFFEAYPDVPWTDIRVLDPKTGKPISAGGSAGGSAG [r3_134_TrMRF] = 1.92
• SAGMYLVKITVTNEDGEKKEITVLVEAETEEEAREAAEELARELAEKYPEKIVEVKVEVVKLPPEVEPSAGG [r19_335_TrROS_Hall] = 4.77
• SAPLKIDLDIEPIPPGDKVRFNARITYPDGHPIRIPFEIYVPPDEIVIKFPIQDPKNGEPIAPLTFVIKSAG [r14_670_TrROS] = 1.97
• SSYTVDVTFTDPSPPKPTHRTLSSIEDAIAEAKAELPPGSVATITVTYPDGSTETITIVGDGVVETKKTASA [r9_482_JUSTAS] = 0.917
• SMKPGQTVTFNVMIRMKDPNMTAQEFAEEAADEIAENFPPGVKIEIKVDDIEPDPPNGEVYFMVKITITVSA [r9_706_TrROS] = 4
• SAGGSAGGSADNKPFKVEIDVEHHPPNGYYRVTIEWPDGREIVVWMPGNPDEAKDQAKELISAGGSAGGSAG [r3_143_TrROS] = 1.26
• SAGGSAGGSAMKITINVSPDEPGVTIEEAKKRLAPHPVEKVTQTPLPSNSLVVTVDVSPEASAGGSAGGSAG [r3_335_JUSTAS] = -0.457

---

The entries below come with measured folding stability dG unfold values attached.
# test: folding stability dG unfold from trypsin proteolysis; higher = more stable
metric: folding stability dG unfold (kcal/mol)

* SAGGHTIWIPFDSPEQAKELANEIARELNDHGLKVKVKVHPDDGWIKVKVDMRNNDKEKKIKIWFPFPSAGG [r13_641_TrROS] | 0.844
* SAMKKIKLSPEALELAKKLPPDYKVTEIKVEKLEDGTVVVTLTVEKTNENGEKEKVELTIVLDKDGKPVSAG [r14_420_TrROS_Hall] | 0.619
* SAGGSAKKKVTITVEKKGDKYLVTIEVDGKTVVIEVPKDTTIEEIAAALPPGAKIKEIKVVKAEELSAGGSA [r15_1058_TrROS_Hall] | 0.716

---

The following sequences are listed with their measured folding stability dG unfold values.
# test: folding stability dG unfold from trypsin proteolysis; higher = more stable
metric: folding stability dG unfold (kcal/mol)

• SAGGMEIKVTVEKREDGYLVVTVEKAESKEEAIEAIKKELREKYPDAEITITDKDGNTIVIKLKDLKSAGGS [r8_236_TrROS_Hall] = 1.16
• SAGGEVKIEVVEKDGELYIVVTVRAPSVEELKKALEELGLEVEVVKIEEVKGEDGETYVVVVVKIKPSAGGS [r16_699_TrROS_Hall] = 2.41
• SAGGSAGGKEKLIVKIKIEKKVKLENGEEKKVKKTIVVEMTPEEVKELLKKLKKENVTEVEIFPSAGGSAGG [r6_984_TrROS_Hall] = 2.7
• SAGGSMRLVKITVTTLEPSAEAIAAGAPTPVTLIEREVSSEEEVEEFIKSLPPNVEVSVERLPPPASAGGSA [r2_25_JUSTAS] = 1.66
• SAGGSAKKPKWIPIKIKLPGSLEEAREWAEEIAKWLAKQNGDIKIDAIKYERDPNGHVEVTIQVRVSAGGSA [r15_718_TrROS] = 2.36
• SAGAMPPVVEVAPVEGEGLLRVTVPVPTSDVVRVTVDLGDRRLEYTLPRDASLEVSTADAEVRVAVELVSAG [r14_96_JUSTAS] = 0.5
• SMKPGDWKWIMFRFPDAENMEITIPIPLPPGYRVWFFFMNGERHEIPAGQEIKFKMPPGEPMWMMIWIWKSA [r9_79_TrROS] = 3.66
• SAGGGMTVETTSKETPLPDGSLRRTETITITEPGGKPLTRTTTKIWDPSTGKVLETRPVSNATVVAESSAGG [r13_1008_JUSTAS] = -0.944
• SAGGSAGGSAGGSMSSTVTTTLVEVGPPNGKRVLVRRTTTTFPDGSVTTTVTVLSTTIASAGGSAGGSAGGS [r4_496_JUSTAS] = 1.84
• SAGGSANGYFILIKIEEIKLTKMRRDPDGKQWQWNFSVKIKIEVVKVFRIKPDPNGNWKIEPGDPISAGGSA [r15_162_TrROS] = 3.01
• LDPNKPENIALLEKVEEAAKAVIEELEKAGYKVEKLYVALGPNGIKIAPVTIPPEFIEELKKAGILVIPVLS [r1_134_TrMRF] = 1.49
• SAGGKVYRLPDGTRVLEVEVDGELYRLVVRRPDGEELVLEFESREEALEAAKALAEAGWEIVAVERVPSAGG [r13_727_TrROS_Hall] = 0.787
• SSYTVDVTFTDPSPPKPTHRTLSSIEDAIAEAKAELPPGSVATITVTYPDGSTETITIVGDGVVETKKTASA [r9_482_JUSTAS] = -0.116
• SAGGAVEITDISSKTVTEPVTFENGTVVPQERTAGTVTTTENGTPVATVPFTSEEELEEAIARALAESAGGS [r8_21_JUSTAS] = -0.276

---

# test: folding stability dG unfold from chymotrypsin proteolysis; higher = more stable
Measured folding stability dG unfold values are reported for all entries that follow.
metric: folding stability dG unfold (kcal/mol)

* SAGGMLPLVVKVKTPDGEEYTFVVAYNPETSELWLPLPKEPTWRNVPLTEASSIPEFQIVEARPLALESAGG [r13_994_TrMRF] | 0.943
* SAGGSAGGSAGGMKVLVIFEDNKIPRVVSEEELKKIPLPFKIIPLGPDPEEAKKILEKSSAGGSAGGSAGGS [r10_419_TrMRF] | 0.34
* SAGGSAGGSAGGTITLPGGAEVTEVERLPGGVLKITGVLTLPGGPVTVEVTLPVTPELLESAGGSAGGSAGG [r7_38_JUSTAS] | 1.03
* SMIIPPELGFEEAVELIKELLEPEKTYLVVTGDPETGTLSVARLDPETGEVEVEPLPTTEGESFVAVFEISA [r9_1059_TrMRF] | 1.3
* AFTITGIEVTYDPATNTVTVTATVTGPDGSTATVTLTLTLPAPPPPVTTVTRTETRTLPDGTTVTVTETFTS [r1_125_TrROS_Hall] | 4.09
* SAGGSAGKPRPIDIWIPLPPGAEEVKIEQLDIFIPDGWRIRIEEIEIDPEDPGYIRVTVKIQPLDDSAGGSA [r15_852_TrROS] | 2.78
* SAGGSAMVYLVTVTIKSEGKEVRYKEWVESDEPEKLIEKVKKEYPNEEIKVEITPFPSKEEAEKLLSAGGSA [r15_889_JUSTAS] | 2.48
* SAGGSAGGSMKVEIKFPDGSVKTIPLSPEEPDVPPEALVKELGADNVTITYYTPDGVPINLGISAGGSAGGS [r12_411_JUSTAS] | 0.916
* SDIEIERDPNMIRIEHTYPFDNYRVKISLYVMVGPDGQFMLMIPIEIELPPPPPTPEKDPNGKEKWKPDASA [r9_456_TrROS] | 4.27
* SAGGSAGGSPGKPKTIPVEMVFFNPEDGYFFEMRSEIYVPPDGNLQIDISIELYPVPPNAPLISAGGSAGGS [r12_116_TrROS] | 1.46
* SAGGSAGGSAGITIWFPYDNIPEILEEAQKNGMEIKSVERVPDGWYLIKMPGKPIEIHIWSAGGSAGGSAGG [r17_379_TrROS] | 1.55
* SAGGFWLKNPNGHYIQVNVEVEWEPRRDPDNGKPTWEPKIEINVEVYDPNGEKRPIPEDQAKDLLKKLSAGG [r13_809_TrROS] | 1.64
* SMYKLSVYRNGQPVPEEEALERVKRIEEELGREVDPEELARLLAAEPDTVVTVTKYAEPGKPIGTLTYTRSA [r9_1045_JUSTAS] | 1.4
* SAGGSAGGSAGSLPIPISSESVSSLPESPLSVVTVKLPDGKTVVITVDLNSSSSSVTPLPSAGGSAGGSAGG [r17_369_JUSTAS] | 1.12

// data source = the supplement of paper PMC12764529
